- Organism: Rattus norvegicus
- EXPERIMENT: Compound was tested for contraction of rat isolated uterine
- Format: functional
- RUN_CONDITIONS: read-out: ED50 (the source's name)
QUANTITY_KIND: EC50

Any idea what EC50 was measured for `CCCCC[C@H](O)C#C[C@@H]1[C@@H](CCCCCCC(=O)O)[C@@H](O)C[C@H]1O` ?
1000 nM

---

- Organism: Cavia porcellus
- EXPERIMENT: Compound was tested for relaxation of guinea-pig trachea precontracted in histamine
- Type: functional
QUANTITY_KIND: pIC50
The read-out pIC50 is expressed as -log10 of concentration in moles per litre.

Entry `CC/C=C\C[C@H](O)C#C[C@H]1[C@H](O)CC(=O)[C@@H]1C/C=C\CCCC(=O)O` : reported pIC50 = ?
5.27
